assaySummary: H69AR cell proliferation blockers – human, duplicate replicates, primary screen (AID 580)
experimentalParameters: H69AR lung tumor cells viability, ATP luminescence, 72 h; at 10 µM
The source made the active and inactive calls.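 How the source made its calls: active means viability at or under a set limit in both replicates, limit being median viability minus 3 SD (cut at about 48% in these data, passing the limit was not always enough); inconclusive means at or under the limit in just one replicate; inactive means at or above the limit in both replicates.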
Field 'call' accepts YES = active, NO = inactive

# input Recorded test outcome, item `CCN1CCN(CCCNC(=O)c2cc3sccc3n2CC)CC1`
# output NO

# input State the result this test recorded for `COc1ccc(-c2noc(COc3ccc(Cl)c(C)c3)n2)cc1` .
# output NO

# input Test call for this molecule, please: O=C(c1ccco1)N1CCN(C(=O)C2CC(c3ccc(F)cc3)=NO2)CC1 (stereo not given)
# output NO

# input Lab log entry: `Cc1cc2ccccc2n1CCNC(=O)C1CC1` — outcome as called in the assay?
# output NO

# input What outcome does the record of this test show for COC(=O)C1=C(N)OC2=C(C(=O)CCC2)C1c1cccs1 (stereo not given) ?
# output NO

# input Given `CC(=O)C1=C(N2CCCCC2)CCC1=O` , state the outcome it received in this test.
# output NO

# input Test call, this molecule: `C=CCSc1nc(N)c2c(C)c(C)sc2n1`
# output NO

# input # fetch the recorded call for `CCOC(=O)c1ccccc1NC(=O)c1cccnc1` here
# output NO

# input What did the test return for `Cc1cc(C)c2c(=O)n(CC(=O)N3CCC(Cc4ccccc4)CC3)sc2n1` ?
# output YES

# input Each molecule tested received a call. Report the one for CCN1CCN(C(CNC(=O)c2ccc3c(c2)OCO3)c2cccnc2)CC1 (stereo not given) .
# output NO

# input I'd appreciate the recorded outcome for `Clc1cccc(N2CCN(Cc3nc(-c4ccccc4)no3)CC2)c1` from this test.
# output NO

# input Hey, what did the test say about CC1Cc2nc(SCC(=O)N3CCCc4ccccc43)n(C)c(=O)c2S1 (stereo not given) ?
# output NO

# input // param item: `O=C(c1ccc2nc(N3CCOCC3)sc2c1)N1CCCC1` ; yields the recorded call
# output NO

# input Check the results log: what was the call for O=C1c2ccccc2C(Nc2ccc3c(c2)OCO3)N1Cc1ccc2c(c1)OCO2 (stereo not given) ?
# output NO

# input Test call, this molecule: `CCOCCCNC(=O)Cn1ncc2c(=O)oc3ccccc3c21`
# output NO

# input Lab log entry: `O=C(NCc1ccc(F)cc1)c1cc2ccccn2n1` — outcome as called in the assay?
# output NO

# input I would be grateful if you could indicate the recorded call for O=C(NCC1CCCO1)C1CCN(S(=O)(=O)c2cccc3cccnc23)CC1 (stereo not given) .
# output NO

# input // param item: `COC(=O)c1cn(NC(=O)c2cccnc2)c(=O)c2ccccc12` ; yields the recorded call
# output NO

# input Which outcome did this test record for the molecule CNC(=O)C1C2C=CC3(O2)C1C(=O)N(C1CC1)C3C(=O)NCc1ccc(OC)cc1 (stereo not given) ?
# output NO

# input Given `O=C(CSc1nnc(Cn2c(=O)sc3ccccc32)n1-c1ccccc1)Nc1nccs1` , state the outcome it received in this test.
# output NO

# input Tell me the recorded outcome of this test for `CC(C)(NC(=O)N1CCCC1)c1cccc(C(C)(C)NC(=O)N2CCCC2)c1` .
# output NO

# input Dear colleague, could you share the recorded outcome for O=C1CCCC2=C1C(c1cccs1)n1nc(SCc3ccccc3F)nc1N2 (stereo not given) when you have a moment?
# output NO

# input Look up the recorded call for CCCCCOc1ccc(C2NC(=O)NC2=O)cc1 (stereo not given) in this test.
# output NO

# input // outcome(item) with item = `O=C1CCCc2c1cc(C(=O)NCCCN1CCOCC1)c(=O)n2-c1ccc(Cl)cc1`
# output NO

# input Short answer needed: outcome of this test for `Cc1ccc(N=Cc2ccc[nH]2)c(O)c1` ?
# output NO

# input Tell me the assay call for `Cc1ccc(CCP(=O)(O)CN2CCOCC2)cn1` please.
# output NO

# input Status in this test for `O=C(Cn1nc(Cc2ccncc2)c2ccccc2c1=O)N1CCN(C(=O)c2ccco2)CC1` ?
# output NO

# input For `O=C(COc1ccc(=O)n(-c2ccccc2)n1)Nc1ccccc1` , which call appears in the assay record?
# output NO

# input What classification did COc1ccccc1CNC(=O)C1CCC(CNc2c(N3CCOCC3)c(=O)c2=O)CC1 (stereo not given) end up with in this test?
# output NO

# input So what was the verdict on COc1ccc(NC(=O)C2CCCN2S(=O)(=O)c2cccc3cccnc23)c(OC)c1 (stereo not given) in this test?
# output NO

# input Please let me know the test result on file for `CCOC(=O)c1cc2c(=O)n3ccccc3nc2n(Cc2ccccc2)c1=N` .
# output NO

# input Recorded call for `CCOC(=O)c1c(C)n(OCc2ccccc2)c2ccc3c(no[n+]3[O-])c12` ?
# output NO

# input Please let me know the test result on file for `O=c1oc2ccccc2cc1NCc1ccccc1O` .
# output NO

# input Lab log entry: Cc1nc2c(-c3ccc(F)cc3)c(C)nn2c(C)c1CCC(=O)NC(C)CCc1ccco1 (stereo not given) — outcome as called in the assay?
# output NO

# input Please share the test call associated with CCn1cc(C(=O)NCC2CCCO2)c(=O)c2cc(S(=O)(=O)N(C)C)ccc21 (stereo not given) .
# output NO
